tested on: MS2 coat protein; test: apparent KD of MS2 coat protein; designed switch direction (-1 OFF switch, 1 ON switch): -1; higher = weaker reporter binding; details: Eterna round: R95; input ligand: none
Measurement Name: apparent KD of MS2 coat protein (nM)
Number in nM, nothing else.

Item Sequence: AAAGAGCUAGGAUAUCGCGACCUUGACAUGAGGAUCACCCAUGUGCCCUCGUAACAACGACGAGAAGGAGCGAAAA [Gelaladied] (puzzle: Exclusion 5)
Target System: MS2 coat protein
Measurement Name: apparent KD of MS2 coat protein
Recorded Value: 19.9

# query: apparent KD of MS2 coat protein of entry AAGAAACAUGAGGAUCACCCAUGUGAGGAUAUGACAAAGAAAAGAAAAGAAAGAAGAGUCAGAAGGCACAAAGG [salish99-ex1_r3_038] (puzzle: Exclusion 1)
57.7

So what's the measured apparent KD of MS2 coat protein for this one? ACAAGCUUUUUGUUCGUCUUAUACACUCCUAAUAAGACAACAUGAGGAUCACCCAUGUAACAAAGACGAACUCAUGU [Sesor Array 8 - Jieux - Sensor v3, turn-off variant 2] (puzzle: Sensor v3, turn-off variant 2)
19.9

----------
tested on: MS2 coat protein; test: apparent KD of MS2 coat protein; higher = weaker reporter binding; conditions: Eterna round: R107; input ligand: tryptophan 2.4 mM
Returns Condition met if the recorded apparent KD of MS2 coat protein is greater than or equal to 0.03 µM, and Condition not met otherwise.

Could you verify whether the entry GCCUAGCAGCGAAGGAGCGAGGUAACUUAAUAAAUAAAUACAAGAGGAUCACCCUUGUUUCCUCAGGUAGGUCGCGCUGCUAGGC [SSAB Alternative Aptamer #2 NP+V+V2] shows apparent KD of MS2 coat protein of no less than 0.03 µM?
Condition not met

Please indicate if the recorded apparent KD of MS2 coat protein for UUAUUUAUAGGGUAUAUCAGAUUAACUGAAGGAGCGUGGUAAUUCACAGGUAGGUCGCAGAUGGAACAUGAGGAUCACCCAUGUU [JR_ExcArginiA_Sub015] meets or exceeds 0.03 µM.
Condition not met

Check the entry GGUGGCUCCAUCGAUACCAGCCACCACCGAUAGACCACAUGAGGAUCACCCAUGUUGGGUGGCCCUUGGCAGCGGUGAAGCUGCC [#1 Same State - Theophylline B Attempt #4 (HarryS)] : does apparent KD of MS2 coat protein equal or exceed 0.03 µM?
Condition met

Is apparent KD of MS2 coat protein at least 0.03 µM? Consider UUAUUUAUAAAUGAUACCAGCCGAUUGGCCGCAAAUCCUAACAUGAGGAUCACCCAUGUCGGCCCUUGGCAGCAUUUAUGGGUUU [XTheo B #28]
Condition met

Please tell me: is the sequence CUCUGGUGCUGAGUGAGUGUCGUGACUGAUACCAGAUGCCUUUACAUCCCUUGGCAGCAGUACAUGAGGAUCACCCAUGUAUUCC [Rireusrama] at or over 0.03 µM in terms of apparent KD of MS2 coat protein?
Condition not met

----------
tested on: K4 kissing-loop RNA reporter; experiment: apparent KD of K4 kissing-loop reporter; higher = weaker reporter binding; conditions: Eterna round: R107; input ligand: FMN 200 uM;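 further: bound reporter read as fluorescence of individual clusters on recovered sequencing chips by microscopy, with normalized cluster intensities fitted with a binding model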
Measurement Name: apparent KD of K4 kissing-loop reporter (nM)
Record the value in nM, omitting the unit from your answer.

Item Sequence: CAUACGAAGCAGUGAUGUUGCUUAUGAGAAGGAGCGCACGAAAGUGCAGGUAGGUCGCUCAGCCAUGUGGACGAAAACGUCCACA [whbob_SS_Arginine_A_sa112]
Measurement Name: apparent KD of K4 kissing-loop reporter
Recorded Value: 266
--
Item Sequence: UUCUGCAUCUCGGCCGCCACUCACUAGUGAUGUUAGUAAGGAGCGACUAGAAAAGUCCAGUUAAUGAGGACCGGGAGAAGCUCUU [Exclusion Tryptophan B GF 1]
Measurement Name: apparent KD of K4 kissing-loop reporter
Recorded Value: 281
--
Item Sequence: UAUGUACACUGGUAGUGGUACAUCGAGGAAGGAGCGUGCGCAGGCACAGGUAGGUCGCCUCAGCGCACGAGUGAUGUUCGUGGGC [Ceaqu]
Measurement Name: apparent KD of K4 kissing-loop reporter
Recorded Value: 308
--
Item Sequence: AUUUAAUUAACUGAUACCAGACUUUUUGUUUUGUUUAUUACUAGUGAUGUUAGUGUUUCUGUCCCUUGGCAGCAGUAUCUACUUA [JR_ExcTheophyB_Sub015]
Measurement Name: apparent KD of K4 kissing-loop reporter
Recorded Value: 134

Any idea what apparent KD of K4 kissing-loop reporter was measured for AAGAGUUGACGAAAAGUCAACUCACGAGAAGGAGCGCACGAAAGUGCAGGUAGGUCGCUCAGUCCAGUGAUGUUGGAACAUAAAA [#OpenEnded 7] ?
66.2

Sample AGGUACAAAAGUACCGCUAGAUCCACGGAAGGAGCGCCGGAAACGGCAGGUAGGUCGCCGGGCAGUGAUGUUGCCGGAUCUAGCA [Omei KL Arginine A SS A v4] — what was its apparent KD of K4 kissing-loop reporter?
161

----------
test system: MS2 coat protein; test: apparent KD of MS2 coat protein; designed switch direction (-1 OFF switch, 1 ON switch): -1; higher = weaker reporter binding; conditions: input ligand: FMN 200 uM
// values below are reported apparent KD of MS2 coat protein
Give the number; nM is assumed, so skip it.

Answered examples (6):
Item Sequence: AGCUGUGGCCGAGGAUAUGACAUGAGGAUCACCCAUGUACCAGAUUAGGCCUGGUAACAGGCUCAUCAGAAGGCGGUCUCAGCA [Eli eng2 - 016] (Eterna round: R96, puzzle: Exclusion NG 2)
Measurement Name: apparent KD of MS2 coat protein
Unit Symbol: nM
Recorded Value: 13.5
--
Item Sequence: UAUUUAGCAAGCAGAUCCCACAUGAGGAUCACCCAUGUUCUCUGAAAGUACAGAAUUACUGUACUUGCUCGUCUUAU [Winner reversed engineered 34] (Eterna round: R97, puzzle: Sensor, turn-off variant 1)
Measurement Name: apparent KD of MS2 coat protein
Unit Symbol: nM
Recorded Value: 210
--
Item Sequence: UCGUGAUUAGAGGAUAUAUUAAGGGUCAGAACAAUAGAAGGCUAAACAUGAGGAUCACCCAUGUAAAUGGUUUU [JR_Ex6_Sub058] (Eterna round: R97, puzzle: Exclusion 6)
Measurement Name: apparent KD of MS2 coat protein
Unit Symbol: nM
Recorded Value: 183
--
Item Sequence: ACGCUCCGUGUAGGAUAUCGCCGUACCACUCGGCGAGAAGGACAUGAGGAUCACCCAUGUAUGUUAUUAUCACGUGUGGCGCGC [Design 51] (Eterna round: R96, puzzle: Exclusion NG 1)
Measurement Name: apparent KD of MS2 coat protein
Unit Symbol: nM
Recorded Value: 25.5
--
Item Sequence: ACAAGCUUUUUCGUGGGUGACAUGAGGAUCACCCAUGUUUGCCGCGUCUUGUCGUCGUGGACCUGUGGUCCAUGACG [Small mod of -44.6, -64.9 by Sellena] (Eterna round: R97, puzzle: Sensor, turn-off variant 1)
Measurement Name: apparent KD of MS2 coat protein
Unit Symbol: nM
Recorded Value: 137
--
Item Sequence: GAUUAACAUGAGGAUCACCCAUGUGAGGAUAUUGACUUGCUCACUUUCCGAUUCGAGUCGAGAAGGCGCAUCUU [1986#117] (Eterna round: R97, puzzle: Exclusion 1)
Measurement Name: apparent KD of MS2 coat protein
Unit Symbol: nM
Recorded Value: 23.9

Would you kindly share the measured apparent KD of MS2 coat protein for UUUUUAUAUGAAGGAUAUACUUAACAUGAGGAUCACCCAUGUGGUGUUGUGAGUGAGUGAGUUUAGUAGAAGGUCAAAUAUUUU [JMF's solution 7] (Eterna round: R96, puzzle: Exclusion NG 2) ?
583

# query: apparent KD of MS2 coat protein of entry AUACGUGAGAAGGAUAUCACACGCCAGAGGCGUUGAGAAGGUUUCACAUGAGGAUCACCCAUGUGCUCUUCCAG [Orlaa] (Eterna round: R97, puzzle: Exclusion 6)
61.3

I have this sequence here, AAAAGUUUUCAGGAUAUGUGCGAUUAAUAUCGUGCAGAAGGGAGGACAUGAGGAUCACCCAUGUUGAAGACAAC [Omei Ex6 A18] (Eterna round: R97, puzzle: Exclusion 6) , and I need its recorded apparent KD of MS2 coat protein.
66.1

Return reported apparent KD of MS2 coat protein; argument: CAGCUGAAUGUGAGGAUAUGUCGAGCUUCGGCUCGAUAGAAGGCACAUGAGGAUCACCCAUGUCUCAACAGCUG [BmEx4/2-C1] (Eterna round: R97, puzzle: Brourd's mod of Exclusion 4)
166

Returns the measured apparent KD of MS2 coat protein for the input sequence. Input: ACGUACCUAGGAUAUACAUGGCCACAUGAUGCCAAGGAACAACUUGAGGAUCACCCAAGUAGAAGGAGGAAAAG [Riberace] (Eterna round: R97, puzzle: Exclusion 2)
78.1

Query (sequence): UUAUGACAUGAGGAUCACCCAUGUAAGGAUAUCGAAGGAGAUGGUUACGAGGCCGCUACGAGAAGGUACGCGGG [Eternabot (L2) Solution 23] (Eterna round: R97, puzzle: Exclusion 1) ; field requested: apparent KD of MS2 coat protein
161

Looking for the measured apparent KD of MS2 coat protein of GAAUAGAGAGGAUAUGCAAUGAAGGUAGUACGAUAUAUCUGACAUGAGGAUCACCCAUGUAGAAGGCUCAGAUC [EX2 #8] (Eterna round: R97, puzzle: Exclusion 2) , can you help?
29.2

# lookup: apparent KD of MS2 coat protein of UAUUAGCAAGUGAGAUCCCACAUGAGGAUCACCCAUGUGCUCGUCUUAUAACGUACUGUGAGGAAACUCACGGUACG [Sensor-V1 #83] (Eterna round: R97, puzzle: Sensor, turn-off variant 1)
47.6

Tell me the measured apparent KD of MS2 coat protein of CAUGAUUGACGAGGAUAUUGUUCUACAUCACGACGAGAAGGCGUCUGUCACAUGAGGAUCACCCAUGUGAGUCUGGUGAAUGAG [Ex NG1 #82] (Eterna round: R96, puzzle: Exclusion NG 1) , please.
31

# apparent KD of MS2 coat protein lookup, item ACAAGCUUUUUCAUAUCUAACAUGAGGAUCACCCAUGUUUAAGCAAUUAUGUUUGGGCUCUUUUGAGCUCGUCUUAU [JR_STOV1_Sub047] (Eterna round: R97, puzzle: Sensor, turn-off variant 1)
13.8

Consider the sequence shown here: UGUCAGAUGGUAGGAUAUCCAUAUCGAGUGACCCUUUCAUAACAUGAGGAUCACCCAUGUCGGUGGGAGAAGGGCCGUACGGUG [salish99_ExNG02_R04_024] (Eterna round: R96, puzzle: Exclusion NG 2) What is its recorded apparent KD of MS2 coat protein?
27.1

Which apparent KD of MS2 coat protein value is on record for UUAACAUUCGUCAGGAUAUUUGCUCGGUGUACGAGAGAGAAGGGACAUGAGGAUCACCCAUGUGACUUCAGCAA [Eternabot (Original) Solution 2] (Eterna round: R97, puzzle: Brourd's mod of Exclusion 4) ?
19.6
